# system: GST
# assay comment: SPOT array
# condition info: median of control spots 978

binder: RAPPPVPKKPSSRIA
SPOT intensity: 1
--
binder: RKRRTHLRLPLIRSN
SPOT intensity: 4
--
binder: RRGPAPPPPPRASRP
SPOT intensity: 1
--
binder: ITHRLRISIPGITGR
SPOT intensity: 0
--
binder: AERNYAPRLPRRETS
SPOT intensity: 0
--
binder: VPPVPLPFGIPPFPM
SPOT intensity: 0
--
binder: LFMKGTPEFPKSGFS
SPOT intensity: 0
